Target: STS (Homo sapiens, UniProt P08842)
Sequence (P08842 22-583, species assumed): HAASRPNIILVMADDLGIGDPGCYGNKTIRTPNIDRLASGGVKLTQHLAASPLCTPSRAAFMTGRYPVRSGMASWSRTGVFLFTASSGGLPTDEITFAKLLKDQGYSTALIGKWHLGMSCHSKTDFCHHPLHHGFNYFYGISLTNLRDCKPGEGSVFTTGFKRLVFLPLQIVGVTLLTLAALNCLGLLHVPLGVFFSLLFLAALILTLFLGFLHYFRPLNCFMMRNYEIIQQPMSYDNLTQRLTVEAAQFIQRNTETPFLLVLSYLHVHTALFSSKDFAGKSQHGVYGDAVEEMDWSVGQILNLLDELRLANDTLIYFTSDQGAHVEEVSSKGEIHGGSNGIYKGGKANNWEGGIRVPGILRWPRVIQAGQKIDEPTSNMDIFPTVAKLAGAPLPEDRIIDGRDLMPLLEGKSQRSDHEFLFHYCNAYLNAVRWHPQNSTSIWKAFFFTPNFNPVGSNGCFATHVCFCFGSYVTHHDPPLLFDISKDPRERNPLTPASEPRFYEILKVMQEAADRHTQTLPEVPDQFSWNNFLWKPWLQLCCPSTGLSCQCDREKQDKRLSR
Experiment: Plate assay, % inhibition
Settings: read-out: Plate assay % inhibition
Response key: Met means inhibition at 0.1 µM >= -10%; Not met means inhibition at 0.1 µM < -10%.

Here's what some known entries look like.
molecule	class
COc1cc2c(cc1OS(N)(=O)=O)CCC1C2CCC2(C)C(OS(N)(=O)=O)CCC12 (stereo not drawn) [OSO2NH2, OMe, C-β-OSO2NH2, α-H]	Met
CC12CCC3c4ccc(OS(N)(=O)=O)cc4CCC3C1CCC2OS(N)(=O)=O (stereo not shown) [BLE99031B]	Met
COc1cc2c(cc1O)CCC1C2CC[C@@]2(C)C1CC[C@@]2(O)Cc1ccc(C(C)(C)C)cc1 (stereo partly shown) [BLE01008]	Not met
COc1cc2c(cc1OS(N)(=O)=O)CC[C@@H]1[C@@H]2CC[C@@]2(C)[C@H]1CC[C@@]2(O)Cc1ccc(C(C)(C)C)cc1 [BLE01016]	Not met

stdin: Is inhibition at 0.1 µM at least -10%? Consider COc1cc2c(cc1OS(N)(=O)=O)CC[C@@H]1[C@@H]2CC[C@@]2(C)[C@H]1CC[C@@]2(O)Cc1ccccc1 [BLE01018]
stdout: Not met

stdin: Is inhibition at 0.1 µM at least -10%? Consider CC1=C2CCC3c4ccc(OS(N)(=O)=O)cc4CCC3C2CC1 (stereo not shown) [BLE00086]
stdout: Met

stdin: Is inhibition at 0.1 µM at least -10%? Consider COc1cc2c(cc1O)CCC1C2CC[C@@]2(C)C1CC[C@@]2(O)Cc1ccccc1 (stereo partly shown) [BLE01014]
stdout: Not met
